protocolText: Identification of proteins required for the processing of the EWS-FLI1 nascent transcript;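 note: robust z of luciferase light less the median z of siRNAs with the same seed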
conditionLabel: TC32 Ewing sarcoma NR0B1-luc vs CMV-luc, 48 h; screened at 20 nM (by protocol)
The full ranking holds about 59,000 sequences; the median of the read-out is about -0.00055, and the lowest 2% start at about -2. Only a selection was taken, and the lowest values are over-represented in it overall.
Catalogue of seed-corrected z-score readings, one per entry.

Solved cases (10 shown):
1) AAAGUAUAAUGGAUGUAUC against GNAI1; -0.47
2) UAUUAGACAGAACUCUUGG against TNRC6C; -14.8
3) UUCCCAUACCCUAUGGUCG against KCNK10; -0.13
4) AUAAUCACACUGUCAACUG against ACAA2; -0.323
5) AUUAGAACUACAGCUCUCG against LOC648999; 0.638
6) AAAUAAAACGUACAAAUAC against SCRT1; 0.713
7) UGUCUUCUAAAGUAAGUGG against ZNF77; -2.26
8) AAUAAAAAUGACAGUUUCC against BTN2A2; 0.474
9) UGAGCCUUGAGUGCACUGG against LOC729047; 0.713
10) UAUAACUUGAGAGUAGCUC against POPDC2; 0.283

Data request: For GGAUUUGCAGCGCAAAGCC against LYPD1 , what is its reported seed-corrected z-score?
Data returned: -0.365

* * *

protocolText: Identification of proteins required for the processing of the EWS-FLI1 nascent transcript;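 note: robust z of luciferase light less the median z of siRNAs with the same seed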
conditionLabel: TC32 Ewing sarcoma NR0B1-luc vs CMV-luc, 48 h; screened at 20 nM (by protocol)
The full ranking holds about 59,000 sequences; the median of the read-out is about -0.00055, and the lowest 2% start at about -2. The entries come from a sample that favours the lowest values as a whole.
Classification field: enter label 1 for seed-corrected z-score values not below -0.1, label 0 for values below it.

// below: answered sequences
1) UUUCUCAUCACUAGAAGUC against PPIH; label 0
2) UUUGUUAGUCAGGUAUUCC against CCDC121; label 1
3) UCUGUUCCAAGGCACUAUC against NFE4; label 1

Data request: Please tell me: is the sequence UUGUGGUAGAUGGGACUGG against DOK3 at or over -0.1 in terms of seed-corrected z-score?
Data returned: label 0

Data request: Please tell me: is the sequence AAGGCAACAGUGUCCCAUG against SMIM22 at or over -0.1 in terms of seed-corrected z-score?
Data returned: label 0

Data request: Please tell me: is the sequence UAAGCUUUUAUUGUGAAUG against GRP at or over -0.1 in terms of seed-corrected z-score?
Data returned: label 0

Data request: Please tell me: is the sequence AUCGCGAACACUAACGUAC against SUB1 at or over -0.1 in terms of seed-corrected z-score?
Data returned: label 0

* * *

protocolText: Identification of proteins required for the processing of the EWS-FLI1 nascent transcript;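 note: robust z of luciferase light less the median z of siRNAs with the same seed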
conditionLabel: TC32 Ewing sarcoma NR0B1-luc vs CMV-luc (EWS-FLI1 target promoter against control promoter), 48 h; screened at 20 nM (by protocol)
In all, about 59,000 sequences were measured (the read-out: median about -0.00055, lowest 2% from about -2 on). This excerpt belongs to a sample that is enriched for the lowest values.
resultType: seed-corrected z-score
No unit in the answer, please; the number alone is enough.

Solved cases (5 shown):
1) UAUAAGUUUCCUCCCAUGC against TM6SF1; 0.269
2) AUAGUAAAACCAAUUACCC against OR2J2; -2.15
3) CUGCUUCUGAGCGUUUGCG against MED14OS; -2.09
4) AAGCUUUUUAUUGGAGUUC against ZNF852; 1.01
5) AUAGUUAUUCUUGUCGGGC against HVCN1; -0.696

Data request: For UUGAAUUUAAGAGAAAGGA against NPR3 , what is its reported seed-corrected z-score?
Data returned: 0.283

Data request: For UAGUGGAUGUCAAACGAGG against CTSD , what is its reported seed-corrected z-score?
Data returned: 0.501

Data request: For AUAGUGCUCAUGAACAUGG against OR7G1 , what is its reported seed-corrected z-score?
Data returned: 0.135

Data request: For AGUUCGAUUAGCUAAGGCC against SYNRG , what is its reported seed-corrected z-score?
Data returned: -0.0555

Data request: For UAGUUGGUUAAAUUGGACC against TEKT3 , what is its reported seed-corrected z-score?
Data returned: -0.0576

Data request: For UUGGGAGUGAAAACAGAGG against OR8B2 , what is its reported seed-corrected z-score?
Data returned: -3.41

Data request: For AUAGUUUAUAAGUCCUAUC against CGRRF1 , what is its reported seed-corrected z-score?
Data returned: 0.53

Data request: For UUUUGUUCGUCUCCGUUCC against AK4 , what is its reported seed-corrected z-score?
Data returned: 0.42
